Just for reference, the nanobody polyreactivity screen of Harvey et al. (2022) is where these values come from.

- protocol-details: yeast display, Sf9 membrane polyspecificity reagent, FACS + sequencing; frameworks hold sequencing errors

- entry-sequence: "QVQLVESGGGLVQAGGSLRLSCAASGFTFVRYTMGWYRQAPGKERELVAVIRRGGSTYYADSVKGRFTISRDNAKNTVYLPMKSLKPEDTAVYYCNALSALAVEDGYWGQGTQVTVSS"
  polyreactivity (PSR sort gate): "low polyreactivity"
- entry-sequence: "KVQLVESGGGLVQAGGSLRISCAASGGIFAYNAMGWYRQAPGKEMELVASITSGGNTYYADSVKGRFTISRDNAKNTFYLQMNSLKPEDTAVYYCNARFYRSWRRYSREPGYNYWGQGTQVTVSS"
  polyreactivity (PSR sort gate): "high polyreactivity"
- entry-sequence: "PVQLQESGGGLVQAGGSLRLSCAASGNIFDADIMGWYRQAPGKERELVACIADGGSTNYADSVKGRFTISRDNAKNTVYLQMNSLKPEDTAVYYCAAIAYPYIPNCFDYDSDYFFRGQGTQVTVSS"
  polyreactivity (PSR sort gate): "low polyreactivity"
- entry-sequence: "QVQLVESGGGLVQAGGSLRLSCAASGSIYGDYAMGWYRQAPGKERELVAAISWRGVRTYYADSVKGRFTISRDNAKNTVYLQMNSLNPEDTAVYYCDAEYYFVNRGAWYDYWGQGTQVTVSS"
  polyreactivity (PSR sort gate): "high polyreactivity"
- entry-sequence: "QVQLVESGGGLVQAGGSLRLSCAASGFIFYNALGWYRQAPGKERELVAAISSGGNTNYADSVKGRFTISRDNAKNTVYLQMNSLKPEDTAVYYCNAGLYQYDGWANYIRYDYWGQGTQVTVSS"
  polyreactivity (PSR sort gate): "low polyreactivity"
- entry-sequence: "QVQLVESGGGLVQAGGSLRLSCAASGFTFWYYAMGWYRQAPGKDRELVASISASGGRTNYADSVKGRFTISRDNAKNTVYLQMNSLKPDDTAVYYCNAASLIAAYGDYYWGQGTQVTVSS"
  polyreactivity (PSR sort gate): "high polyreactivity"
- entry-sequence: "QVQLVESGGGLVQAGGSLRLSCAASGSIFGWNAMGWYRQAPGKERELVAAISSGGSTYYADSVKGRFTISRDNAKNTVYLQMNSMKPEDPAVYYCNAYFQYYDYWGQGTQVTVSS"
  polyreactivity (PSR sort gate): "low polyreactivity"
- entry-sequence: "QVQIVESGGGLVQAGGSLRLSCAASGFTIPPYTMGWYRQAPRKEREFVATITASGGSTYYADSVKGRFTISRDNAKNTVYLQMNSLNPEDTAVYYCNADYYSLYFFAWYRTNDFWGQGTQVTVSS"
  polyreactivity (PSR sort gate): "low polyreactivity"
- entry-sequence: "QVQLVESGGGSVQAGGRLRLRCAASGLIFYYYAMGWYRQAPGKERELVADIDRGGDTYYADSVKGRFTISRDNAKNNVYLQMNSLKPEDTEVYYCAAVDSYGYVPVFGYWGQGTQVTVSS"
  polyreactivity (PSR sort gate): "low polyreactivity"
- entry-sequence: "QVQLQESCGGLVQAGGSLCLSCAASGTIFFDGDMGWYRQAPGKEREFVAAINPGGSAYYADSVKGRLPLAAITHTVYLQMNSLKPEDTAVYYCAAKLFDVYGYYYWGQGTHVTVSS"
  polyreactivity (PSR sort gate): "low polyreactivity"
- entry-sequence: "QVQLVESGGGLVQAGGSLRLSCAASGSTFDLYAMGWYRQAPGKEREFVASISWRGTNTYYADSVKGRFTISRDNAKNTVYLQMISLKPEDTAVYYCYAVRGWTTRYDYWGQGTQVTVSS"
  polyreactivity (PSR sort gate): "high polyreactivity"
- entry-sequence: "QVQLVESGGGLVQAGGSLRLSCAASGSTFDSYAMGWYRQAPGKEREFVAAITWSGGRTYYADCVKGRFTISRDNAKNTVYLQMNSLKPEDTAVYDCSATDPWGWDYYYWGQGSQVTVSS"
  polyreactivity (PSR sort gate): "low polyreactivity"
- entry-sequence: "QVQLVESGGVLVQAGGSLRLSCAASGSIFCVNAMGWSRQAPGKERELVAAISWRGASTYYADSVKGRFTISRDNAMNTVYLQMNSLKPEDTAVYYCAAKCTGGDPYYAFDYWGQGTHVTVSS"
  polyreactivity (PSR sort gate): "low polyreactivity"
- entry-sequence: "QVQLVESGGRLVQAGGSLRLSCAASGTFDLSAMGWYSQAPGKERELVAAITYRGDTTYYADSVKGRFTISRDNAKNTVYLQMNSMKPEDTAVYYCAAEWYYQFSSWYDYWGQGSQVTVSS"
  polyreactivity (PSR sort gate): "high polyreactivity"
- entry-sequence: "QDQLVESGGGLVQARGSLRLSSAATGSIFGTKAKGWYRQATGKEKEYDAAIDYSGSITRYADSVKGRFTISRDLSKNTVYLKMNSLKPEDTAVYYCAARSYAKDWGGYNYWGQGTQGTVSS"
  polyreactivity (PSR sort gate): "high polyreactivity"
- entry-sequence: "QVQLQESGGGLVQAGGSLRLSCAASGSIFHLHIMSWYRHAPGKERESVAAISYGTSTYYADSVKCRFTICRDNAKNTVYLQINIPKPDDTAVYYCAALFLVSKHHHYWGEGTQVTVSS"
  polyreactivity (PSR sort gate): "low polyreactivity"
- entry-sequence: "QVHLVESGGGLVQAGCCLRLRCAASGRTYDAYAKAWYRQAPGKERELVAAISSGDITNYADSVKGRFTISRDHAKNTVYLQMNSLKPEDTAVYYCAAKPRLRFFLWHEYSSRYDYWGQGTQVTVSS"
  polyreactivity (PSR sort gate): "high polyreactivity"
- entry-sequence: "QVQLVESGGGLVQAGGSLRLSCAASGFTFSWYALGWYRQAPGKERELVAAINWSGTSTYYADSVKGRFTISRDNAKNTVYLQMNSLKPEDTAVYYCNVVVYRWSPVSKLDYWGQGTQVTVSS"
  polyreactivity (PSR sort gate): "high polyreactivity"
- entry-sequence: "QVQLVESGGGLVQAGGSLRLSCAASGSTFDLYAMGWCRQAPGKEREWVAAITWSGDDTYYADSVKGRFTISRDNATNTVYLQMNSLKPEDTAVYYCAAAYAYWGQGTQVTVSS"
  polyreactivity (PSR sort gate): "low polyreactivity"
- entry-sequence: "QVQLVESGGGLVQAGGSLRLSCAASGSTFYTYTMGWYRQAPGKERALVAAISSSGGDTYYADSVKGRFTISRDNAKNTVYLQMNSLKPEDTAVYYCAALGAFPSLEFDYWGQGTQVTVSS"
  polyreactivity (PSR sort gate): "low polyreactivity"
- entry-sequence: "HLQLVESGGGLVQAGGSLRLSCAPSGRILRDYDMGWYRQAPGKERELVAAINWSDGSTYYADSVKGRFTISRDNAKNTVYLQMNSLKPDDTAVFYCAASRWRPLERGTSWLHDYWGQGTQVTVSS"
  polyreactivity (PSR sort gate): "low polyreactivity"
